# Tested on: HCT-8
# Measurement notes: In vitro cytotoxicity against HCT-8 human colon carcinoma cells.
# Type: functional
# Conditions used: read-out: ID50 (the source's name)
pIC50: −log10 of the molar value.
pIC50 values for the compounds below.
Reported property: pIC50

Chem smiles: COc1cc(C(=O)NCCN(C)C)c2nc3ccccc3c(N)c2c1
Reported property: pIC50
Measured result: 7.49

Chem smiles: Cc1ccc2nc3c(C(=O)NCCN(C)C)cccc3c(N)c2c1
Reported property: pIC50
Measured result: 6.31

Chem smiles: CN(C)CCNC(=O)c1cccc2c(N)c3cc(Cl)ccc3nc12
Reported property: pIC50
Measured result: 6.31

Chem smiles: CN(C)CCNC(=O)c1cccc2c(N)c3ccc(Cl)cc3nc12
Reported property: pIC50
Measured result: 6.61

Chem smiles: COc1ccc(C(=O)NCCN(C)C)c2nc3ccccc3c(N)c12
Reported property: pIC50
Measured result: 7.72

Chem smiles: Cc1ccc2c(N)c3cccc(C(=O)NCCN(C)C)c3nc2c1
Reported property: pIC50
Measured result: 6.92

Chem smiles: CN(C)CCNC(=O)c1cccc2c(N)c3cccc(Cl)c3nc12
Reported property: pIC50
Measured result: 7.48

Chem smiles: COc1ccc2nc3c(C(=O)NCCN(C)C)cccc3c(N)c2c1
Reported property: pIC50
Measured result: 6.22

Chem smiles: COc1cccc2nc3c(C(=O)NCCN(C)C)cccc3c(N)c12
Reported property: pIC50
Measured result: 6.31

Chem smiles: COc1cccc2c(N)c3cccc(C(=O)NCCN(C)C)c3nc12
Reported property: pIC50
Measured result: 7.05

Chem smiles: CN(C)CCNC(=O)c1cccc2c(N)c3c(Cl)cccc3nc12
Reported property: pIC50
Measured result: 6.44

====

# System: Mus musculus
# Measurement notes: In vivo optimal i.p. dose administered on days 1, 5, and 9 after i.p. inoculation of (10E6) P388 leukemia cells.
# Format: functional

Chem smiles: COc1ccc2nc3c(C(=O)NCCN(C)C)cccc3c(N)c2c1
OD / mg/kg/day: 13.3
--
Chem smiles: Cc1cccc2c(N)c3cccc(C(=O)NCCN(C)C)c3nc12
OD / mg/kg/day: 2.6
--
Chem smiles: COc1cccc2c(N)c3cccc(C(=O)NCCN(C)C)c3nc12
OD / mg/kg/day: 3.9
--
Chem smiles: COc1ccc2c(N)c3cccc(C(=O)NCCN(C)C)c3nc2c1
OD / mg/kg/day: 8.9
--
Chem smiles: CN(C)CCNC(=O)c1cccc2c(N)c3cccc(Cl)c3nc12
OD / mg/kg/day: 2.6
--
Chem smiles: COc1cccc2nc3c(C(=O)NCCN(C)C)cccc3c(N)c12
OD / mg/kg/day: 45
--
Chem smiles: CN(C)CCNC(=O)c1cccc2c(N)c3ccccc3nc12
OD / mg/kg/day: 4.5
--
Chem smiles: CN(C)CCNC(=O)c1ccc(Cl)c2c(N)c3ccccc3nc12
OD / mg/kg/day: 8.9
--
Chem smiles: COc1cc(C(=O)NCCN(C)C)c2nc3ccccc3c(N)c2c1
OD / mg/kg/day: 5.9
--
Chem smiles: CN(C)CCNC(=O)c1cccc2c(N)c3c(Cl)cccc3nc12
OD / mg/kg/day: 20
--
Chem smiles: CN(C)CCNC(=O)c1cccc2c(N)c3ccc(Cl)cc3nc12
OD / mg/kg/day: 8.9
